- assayDetails: water-leachability determination, retention on glass fiber paper
- Type: physicochemical
- measurementParameters: leached 8 hours, 20° C. water at 10 ml./sec., average of duplicate determinations
Returns yes if the recorded Percent Retention, Water Extraction is greater than or equal to 90%, and no otherwise.

compound: N#CSCOc1ccc(Cl)cc1 [III]
answerLabel: no

compound: N#CSCOc1c(Cl)c(Cl)c(Cl)c(Cl)c1Cl [VI]
answerLabel: yes

compound: N#CSCOc1c(Cl)cc(Cl)c(Cl)c1Cl [II]
answerLabel: yes

compound: N#CSCOc1ccc(Cl)cc1Cl [Compound V]
answerLabel: no

compound: Cc1cc(OCSC#N)ccc1Cl [IV]
answerLabel: no

FYI, the data here is from patent US4087450A.
